Attribution: PubChem BioAssay AID1259313

Tested on: Glutamate receptor ionotropic, NMDA 3A (GRIN3A) ligand-binding domain
Experiment: binders of NR3A ligand-binding domain, primary screen, biophysical, differential scanning fluorimetry, uHTS (AID 1259313)
Conditions: NR3A LBD differential scanning fluorimetry, at 25 µM, stronger effect = higher value, 0% = protein alone, 100% = glycine-bound protein
The campaign covered roughly 340,000 compounds. About 8,500 (2.5%) were called active. Shown is part of a subset that was picked to be rich in actives.
quantity.name: Tm shift relative to glycine control

# annotated cases, reported Tm shift relative to glycine control shown
INSERT INTO measurements (molecule, quantity_name, val) VALUES
  ('O=C(NCCCN1CCOCC1)C1CCCN(S(=O)(=O)N2CCCCC2)C1 (stereo not given)', 'Tm shift relative to glycine control', '-1.39% (inactive)'),
  ('CCC(C)(C)NC(=O)C(c1cccc(OC)c1OC)N(CC(C)C)C(=O)CCC(=O)Nc1cc(C)on1 (stereo not given)', 'Tm shift relative to glycine control', '-1.85% (inactive)'),
  ('COc1ccc(NC(=O)N2CCCC2C(=O)NCc2ccccc2Cl)cc1 (stereo not given)', 'Tm shift relative to glycine control', '-2.42% (inactive)'),
  ('O=C(CN1C2CCC1CC(NC(=O)C1CC1)C2)NCc1ccccc1 (stereo not given)', 'Tm shift relative to glycine control', '-0.34% (inactive)');

Query: State, for Glutamate receptor ionotropic, NMDA 3A (GRIN3A) ligand-binding domain, measured Tm shift relative to glycine control of the molecule listed here: `Cc1cc(C)cc(OCC(=O)NNC(=O)c2cc3ccccc3oc2=O)c1`
Reply: 2.22% (inactive)

###

System: Glutamate receptor ionotropic, NMDA 3A (GRIN3A) ligand-binding domain
Assay: binders of NR3A ligand-binding domain, primary screen, biophysical, differential scanning fluorimetry, uHTS (AID 1259313)
Conditions: NR3A LBD differential scanning fluorimetry, at 25 µM, stronger effect = higher value, 0% = protein alone, 100% = glycine-bound protein
Hit rate of the full screen: of about 340,000 compounds, about 8,500 (2.5%) were called active. The full list was thinned out, with actives kept by preference.
quantity.name: Tm shift relative to glycine control (%)
Answer format: numeric, % implied, no suffix.

These solved cases illustrate the format of a correct answer.
INSERT INTO results (compound, val) VALUES
  ('CCN(CC(=O)Nc1c(F)cccc1F)C(=O)CN1c2cccc3cccc(c23)S1(=O)=O', -0.42),
  ('Nc1cccc(-c2cc(-c3ccccc3)nc(-c3cccc(N)c3)n2)c1', 42.8);

Query: Name the recorded Tm shift relative to glycine control of the compound listed here: `Cc1ccc(C)c(NC(=S)NNC(=O)c2csc(C)c2)c1`
Reply: 1.94

Query: Kindly indicate its recorded Tm shift relative to glycine control. Item: `CCOC(=O)c1nc(N)sc1C(=O)OCC`
Reply: 17.7

Query: Recall and state the measured Tm shift relative to glycine control for COC(=O)C1CCN(C(=O)NC2CC(=O)N(c3ccc4c(c3)OCCO4)C2)CC1 (stereo not given) .
Reply: 0.42

Query: Report Tm shift relative to glycine control, nothing else, for this compound: `COc1ccc(-c2nc(N)ncc2-c2ccc(Cl)cc2)c(O)c1`
Reply: -3.97

Query: Report Tm shift relative to glycine control, nothing else, for this compound: `Cc1ccc2nc(C)c3c(c2c1)N(c1ccccc1)CC3`
Reply: -1.71

Query: Give reported Tm shift relative to glycine control value for `O=C(Nc1ccc(Cl)cc1)Nc1ccc(C(=O)N2CCOCC2)cc1`
Reply: 2.25

Query: For the compound `CC(C)Cn1c(N)c(C(=O)NCc2cccs2)c2nc3ccccc3nc21` , give its reported Tm shift relative to glycine control.
Reply: 19.1

Query: # return recorded Tm shift relative to glycine control for entry `CCC[C@@H]1C[C@@]1(CCC)[C@@H](NC(=O)c1ccccc1)c1ccc(C(=O)OC)cc1`
Reply: -0.95

Query: Output Tm shift relative to glycine control of `Cc1cc(C)c(C(=O)CSc2nc(C)cc(=O)[nH]2)c(C)c1`
Reply: -3.2

Query: Output Tm shift relative to glycine control of CC(C)NC(=O)c1ccccc1S(=O)c1ccccc1C#N (stereo not given)
Reply: -0.24

###

Test system: Glutamate receptor ionotropic, NMDA 3A (GRIN3A) ligand-binding domain
Assay: binders of NR3A ligand-binding domain, primary screen, biophysical, differential scanning fluorimetry, uHTS (AID 1259313)
Details: NR3A LBD differential scanning fluorimetry, at 25 µM, stronger effect = higher value, 0% = protein alone, 100% = glycine-bound protein
In all, about 340,000 compounds went through this assay and about 8,500 (2.5%) were called active. For the sample, actives were picked, then their nearest neighbours and some compounds at random.
quantity.name: Tm shift relative to glycine control (%)
# output: bare number, implied unit %

Examples with their reported Tm shift relative to glycine control follow.
INSERT INTO results (compound, val) VALUES
  ('COc1cc(NC(=O)CSC(=S)N2CCCC2)c(OC)cc1Cl', -1.06),
  ('CCC(C(=O)OCC(=O)Nc1c(Cl)cc(Cl)cc1Cl)c1ccccc1 (centres undefined)', -8.02),
  ('O=C(NC(Nc1nc2ccc([N+](=O)[O-])cc2s1)(C(F)(F)F)C(F)(F)F)c1ccccc1', 6.26);

Query: Could you please provide reported Tm shift relative to glycine control for CCCc1cc(=O)oc2c(C)c(OC(C)C(=O)NCC(O)c3ccccc3)ccc12 (centres undefined) ? Thanks!
Reply: 0

Query: Supply measured Tm shift relative to glycine control of CCOc1ccc(N2C(=O)CC(N(CCc3ccc(OC)c(OC)c3)C(=S)Nc3ccccc3)C2=O)cc1 (centres undefined) in your reply.
Reply: 14.8

Query: Give the value of Tm shift relative to glycine control reported for the following: `Cc1cc(NC(=O)c2ccco2)c(=O)n(Cc2c(F)cccc2Cl)c1`
Reply: -1.84

Query: Please report Tm shift relative to glycine control for the following compound: `CCCN1Cc2cccc(C(=O)Nc3ccc(S(=O)(=O)N4CCCCCC4)cc3)c2C1=O`
Reply: -5.76

Query: Report Tm shift relative to glycine control, nothing else, for this compound: `Cc1cc(/C=C2/NC(=O)NC2=O)c(C)n1-c1cccnc1`
Reply: -4.95

Query: Supply recorded Tm shift relative to glycine control for `Cc1ccc(S(=O)(=O)N2CCN(CC(=O)N/N=C/c3ccc(Br)s3)CC2)cc1` here.
Reply: 0.82

Query: Give the measured Tm shift relative to glycine control for CN(C)c1ccc(NC(=S)N(CCc2ccccc2)C2CC(=O)N(c3c(Cl)cccc3Cl)C2=O)cc1 (centres undefined)
Reply: -2.73

Query: Tell us which Tm shift relative to glycine control value is on record for `Cc1nc(COc2cc3oc(=O)cc(C)c3cc2Cl)cs1`
Reply: -0.26

Query: Please give the documented Tm shift relative to glycine control of `NC(=O)COc1ccc(C23CC4CC(CC(C4)C2)C3)cc1`
Reply: 1.05

###

System: Glutamate receptor ionotropic, NMDA 3A (GRIN3A) ligand-binding domain
Assay: binders of NR3A ligand-binding domain, primary screen, biophysical, differential scanning fluorimetry, uHTS (AID 1259313)
Conditions: NR3A LBD differential scanning fluorimetry, at 25 µM, stronger effect = higher value, 0% = protein alone, 100% = glycine-bound protein
In all, about 340,000 compounds went through this assay and about 8,500 (2.5%) were called active. What follows is part of a selection rich in actives, with near analogues and random picks from the rest.
quantity.name: Tm shift relative to glycine control

INSERT INTO results (query_smiles, quantity_name, val) VALUES
  ('Cc1c(Nc2nc3ccccc3nc2NS(=O)(=O)c2cccs2)c(=O)n(-c2ccccc2)n1C', 'Tm shift relative to glycine control', '0.52% (inactive)'),
  ('CCCCCCCCCCOC(=O)Cn1c(COc2cccc(OC)c2)[n+](C)c2ccccc21', 'Tm shift relative to glycine control', '17.8% (active)');

Query: Note Tm shift relative to glycine control for the compound shown: `Cc1ccc(C(=O)OCC(=O)NC(=O)Cc2ccccc2)c(O)c1`
Reply: 0.78% (inactive)

Query: Recall and state the measured Tm shift relative to glycine control for `COC(CNC(=O)Cn1ncc2ccsc2c1=O)OC` .
Reply: -0.44% (inactive)

Query: For the compound `Cc1ccc(C(=O)NCC(=O)OCC(=O)Nc2cccc(S(=O)(=O)N3CCCC3)c2)cc1C` , report Tm shift relative to glycine control.
Reply: -2.16% (inactive)

###

System: Glutamate receptor ionotropic, NMDA 3A (GRIN3A) ligand-binding domain
Assay: binders of NR3A ligand-binding domain, primary screen, biophysical, differential scanning fluorimetry, uHTS (AID 1259313)
Details: NR3A LBD differential scanning fluorimetry, at 25 µM, stronger effect = higher value, 0% = protein alone, 100% = glycine-bound protein
The campaign covered roughly 340,000 compounds. About 8,500 (2.5%) were called active. Shown is part of a subset that was picked to be rich in actives.
Measured Tm shift relative to glycine control, listed per entry for reference.
The figure you give is taken to be in %; do not add the unit.

INSERT INTO assay_data (compound, target_of_assay, quantity_name, val) VALUES
  ('COc1ccccc1N1CCN(c2ncnc3sc(C)c(-c4ccccc4)c23)CC1', 'Glutamate receptor ionotropic, NMDA 3A (GRIN3A) ligand-binding domain', 'Tm shift relative to glycine control', 1.26),
  ('O=C(O)CC/C(=N\NC(=O)c1ccc(F)cc1)c1ccc(Br)cc1', 'Glutamate receptor ionotropic, NMDA 3A (GRIN3A) ligand-binding domain', 'Tm shift relative to glycine control', -1.55);

Query: Let me know recorded Tm shift relative to glycine control for `C#CCOCCOCCOCCNc1nc(N2CCN(C(=O)Cn3cc(CCO)nn3)CC2)nc(N2CCN(C(=O)[C@H](CCCCN)n3cc(CCCC)nn3)CC2)n1` , thanks.
Reply: 0.76

Query: For `CCOC(=O)[C@H]1[C@H]2COc3ccc(OC)cc3[C@@H]2N2C(=O)c3ccc(F)cc3NC(=O)[C@@]12C` , write its Tm shift relative to glycine control.
Reply: -0.63

Query: Given the compound `CC(C)C[C@H](NC(=O)N1CCn2c1nc1ccccc12)C(=O)NC1CC1` , write its reported Tm shift relative to glycine control.
Reply: -0.74
